Tested on: methylphenidate-induced gnawing
assayRemarks: Methylphenidate antagonism
Type: in vivo, mice
experimentalConditions: Mus musculus, ip, read-out: MePh Antg. ED50(ip)
Where a name gives a salt, the structure may show the parent alone.
compounds and their reported ED50

| compound | ED50 [µmol/kg] |
| --- | --- |
| CN1CC=C(c2cn(-c3ccc(F)cc3)c3ccc([N+](=O)[O-])cc23)CC1 | 0.1 |
| CC(C)CN1CC=C(c2cn(-c3ccc(F)cc3)c3ccc(Cl)cc23)CC1 [Lu 22-134, hydrobromide] | 1.7 |
| CN1CC=C(c2cn(-c3ccc(F)cc3)c3ccc(C(F)(F)F)cc23)CC1.O=C(O)C(=O)O [Lu 21-120, oxalate] | 0.08 |
| Br.CN1CC=C(c2cn(-c3ccc(F)cc3)c3ccc(Cl)cc23)CC1 [Lu 22-117, hydrobromide] | 0.06 |
| O=C1NCCN1CCN1CC=C(c2cn(-c3ccc(F)cc3)c3ccc(F)cc23)CC1 [Lu 21-046, oxalate] | 48.1 |
| CN1CC=C(c2cn(-c3ccc(F)cc3)c3ccc(F)cc23)CC1.Cl [Lu 21-018, hydrochloride] | 0.58 |
| CN(C)CCCN1c2ccccc2Sc2ccc(Cl)cc21 [Clorpromazine, reference compound] | 23 |

====

assayRemarks: Catalepsy
Format: in vivo, rat
experimentalConditions: po; rat; 24 h
Structures can show the parent of a compound that is named as a salt.
Entries annotated with measured Catalep. ED50(po) 24 h

| compound | relationSymbol | Catalep. ED50(po) 24 h / µmol/kg |
| --- | --- | --- |
| O=C1OCCN1CCN1CC=C(c2cn(-c3ccc(F)cc3)c3ccc([N+](=O)[O-])cc23)CC1 | > | 8.8 |
| CN1CCN(c2cn(-c3ccccc3)c3ccc(Cl)cc23)CC1 [Lu 23-015, reference compound] | > | 15 |
| O=C1NCCN1CCN1CCN(c2cn(-c3ccc(F)cc3)c3ccc(C(F)(F)F)cc23)CC1 [Lu 23-001, dihydrobromide] | = | 2.6 |
| OCCN1CCN(CC/C=C2/c3ccccc3Sc3ccc(C(F)(F)F)cc32)CC1 [Cis(Z)Flupentixol, reference compound] | = | 19 |
| OCCN1CCN([C@@H]2C[C@@H](c3ccc(F)cc3)c3ccc(C(F)(F)F)cc32)CC1 (racemic) [Tefludazine, reference compound] | = | 0.9 |
| Cc1ccc2c(c1)c(C1=CCN(C)CC1)cn2-c1ccc(F)cc1.Cl | = | 6.5 |

====

Test system: methylphenidate-induced gnawing
assayRemarks: Methylphenidate antagonism
Format: in vivo, mice
experimentalConditions: *ED50 from sc administration; mice; methylphenidate s.c. 60 mg/kg

| compound | readoutUnit | relationSymbol | MePh Antg. ED50 (sc) |
| --- | --- | --- | --- |
| OCCN1CC=C(c2cn(-c3ccc(F)cc3)c3ccc(F)cc23)CC1 [Lu 23-160] | µmol/kg | = | 3.4 |
| OCCCN1CC=C(c2cn(-c3ccc(F)cc3)c3ccc(F)cc23)CC1 [Lu 23-175] | µmol/kg | = | 0.32 |
| O=[N+]([O-])c1ccc2c(c1)c(C1=CCN(CCO)CC1)cn2-c1ccc(F)cc1 [Lu 23-150] | µmol/kg | = | 0.07 |
| O=C1NCCN1CCN1CCC(c2cn(-c3ccc(F)cc3)c3ccccc23)CC1 [Lu 23-086] | µmol/kg | > | 98 |
